- System: human prostate adenocarcinoma PC-3 xenografts (GRPR+)
- Design: species or system SCID mice
- experimental.parameters: SCID, mouse, in vivo, 4 h

molecule	uptake in PC-3 tumor, % ID/g
CC(C)C[C@H](NC(=O)C[C@H](O)[C@H](CC(C)C)NC(=O)[C@H](Cc1c[nH]cn1)NC(=O)CNC(=O)[C@@H](NC(=O)[C@H](C)NC(=O)[C@H](Cc1c[nH]c2ccccc12)NC(=O)[C@H](CCC(N)=O)NC(=O)[C@@H](Cc1ccccc1)NC(=O)CCNC(=O)CCNC(=O)CN1CCN(CC(=O)O)CCN(CC(=O)O)CCN(CC(=O)O)CC1)C(C)C)C(N)=O [[^111In]JMV4168, metal not drawn]	10.22
